Tested on: A2780
Assay: Antiproliferative activity against human A2780 cells incubated for 48 hrs by CCK8 assay
Format: functional, cell-based
Details: A2780, 48 h
endpoint: IC50

COc1ccc(Sc2nc(Cl)nc3ccsc23)cc1
31.1 nM
CN(c1ccc(C(F)F)cc1)c1nc(Cl)nc2ccsc12
> 1000 nM
CN(c1ccc(F)cc1)c1nc(Cl)nc2ccsc12
> 1000 nM
COc1ccc(Nc2nc(Cl)nc3ccsc23)cc1
> 1000 nM
COc1ccc(/C=C\c2cc(OC)c(OC)c(OC)c2)cc1O
2.15 nM
COc1ccc(N(C)c2nc(Cl)nc3sccc23)cc1
5.44 nM
COc1ccc2c(c1)NC(=O)CN2c1nc(Cl)nc2ccsc12
0.38 nM
CN(c1ccc(C(F)(F)F)cc1)c1nc(Cl)nc2ccsc12
> 1000 nM

----------
Tested on: A549
Assay: cells
Conditions: Homo sapiens, A549, 48 h
Description: Antiproliferative activity against human A549 cells incubated for 48 hrs by CCK8 assay
endpoint: IC50

CN(c1ccc(F)cc1)c1nc(Cl)nc2ccsc12
> 1 µM
CN(c1ccccc1)c1nc(Cl)nc2ccsc12
> 1 µM
COc1ccc(N(C)c2nc(N3CCN(C)CC3)nc3ccsc23)cc1
> 1 µM

----------
Measured IC50 by item
Tested on: A549
Test: cells
Conditions: Homo sapiens, A549, 48 h
endpoint: IC50 (nM)

CCNc1nc(N(C)c2ccc(OC)cc2)c2sccc2n1
160
COc1ccc(Sc2nc(Cl)nc3ccsc23)cc1
78.1
COc1ccc(N(C)c2nc(Cl)nc3[nH]ccc23)cc1
588
COc1ccc(N(C)c2nc(Cl)nc3ccn(C)c23)cc1
1.76
Cc1nn(C)c2ccc(N(C)c3nc(Cl)nc4ccsc34)cc12
27.6
COc1ccc2c(c1)NC(=O)CN2c1nc(Cl)nc2ccsc12
0.84
COc1ccc(N(C)c2nc(Cl)nc3ccoc23)cc1
9.05

----------
Test system: A2780
Assay: Antiproliferative activity against human A2780 cells incubated for 48 hrs by CCK8 assay
Assay type: functional, cell-based
Conditions: A2780, 48 h
pIC50: −log10 of the molar value.
endpoint: pIC50

COc1ccc(N(C)c2nc(NC3CCCC3)nc3ccsc23)cc1
< 6.00
COc1ccc(N(C)c2nc(N3CCN(C)CC3)nc3ccsc23)cc1
< 6.00
COc1ccc(N(C)c2nc(NC3CCCCC3)nc3ccsc23)cc1
< 6.00
